Record form. Attribute: IC50. Fill in for each entry.
Molecular target: AuroraA-TPX2 (Homo sapiens)
Construct: 20 μL of AuroraA-TPX2 KD GST for a final volume of about 41 μL; GST
Sequence (O14965 133-383 limits assumed): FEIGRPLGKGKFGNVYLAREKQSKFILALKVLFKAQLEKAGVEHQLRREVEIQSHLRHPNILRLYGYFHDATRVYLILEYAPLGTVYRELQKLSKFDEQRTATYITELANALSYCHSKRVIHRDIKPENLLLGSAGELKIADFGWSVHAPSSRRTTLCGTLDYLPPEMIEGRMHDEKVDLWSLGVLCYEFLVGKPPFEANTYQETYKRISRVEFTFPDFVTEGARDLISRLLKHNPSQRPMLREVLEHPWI
Sequence (Q9ULW0 1-43 partner limits assumed): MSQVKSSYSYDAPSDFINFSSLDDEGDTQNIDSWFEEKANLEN
Test: AuroraA-TPX2 Homogeneous Time Resolved Fluorescent (HTRF) kinase assay
Assay type: biochemical
Conditions: average; read-out: AurA_IC50_IP (uM Avg)
Protocol: AuroraA-TPX2-Homogeneous Time Resolved Fluorescent (HTRF) Kinase Assay: The Aurora-A HTRF assay begins with Aurora-A in the presence of ATP phosphorylating the biotinylated peptide PLK. The reaction incubates for about 120 min. […] The assay is quenched and stopped with 160 μL of detection reagent. […] Added to this buffer prior to reading is Steptavidin allophycocyanin (SA-APC) at a final conc in the assay of 0.0005 mg/mL, and europilated anti-phosphoPLK Ab (Eu-anti-PLK) at a final conc of 0.02 nM. […]
Give bare numbers, in µM.

>  <Molecule>
COc1cnc2c(Sc3ccc(Nc4nnc(N5CCC(F)CC5)c5ccccc45)cc3)ccnc2c1 [compound 557]

>  <Observed Measurement>
0.161

$$$$

Fill in IC50 for each of the 5 molecules listed.
1. COc1cnc2c(Oc3ccc(Nc4nnc(-c5ccc(OC)c(F)c5)c5ccccc45)cc3)ccnc2c1 [compound 227]
2. COc1cnc2c(Oc3ccc(Nc4nnc(-c5ccc(Cl)s5)c5ccccc45)cc3)ccnc2c1 [compound 140]
3. c1ccc(-c2nnc(Nc3ccc(Oc4ncnc5[nH]ccc45)cc3)c3ccccc23)cc1 [compound 273]
4. Nc1ccc2nccc(Sc3ccc(Nc4nnc(-c5ccccc5)c5ccccc45)cc3)c2c1 [Example 399]
5. COCCOc1ccc(-c2nnc(Nc3ccc(Sc4ccnc5cc(OC)cnc45)cc3)c3ccccc23)cc1OCCOC [compound 473]

// result
1: 0.051; 2: 0.022; 3: 1.66; 4: 0.286; 5: 0.073

// for each molecule in input: emit IC50
1. Cc1nc(-c2nnc(Nc3ccc(Oc4ccnc5cc(C#N)ccc45)cc3)c3ccccc23)sc1C [compound 277]
2. COc1cnc2c(Sc3ccc(Nc4nnc(N5CCN(C(C)=O)CC5)c5ccccc45)cc3)ccnc2c1 [compound 608]
3. COc1cnc2c(Oc3ccc(Nc4nnc(-c5ccncc5OC)c5ccccc45)cc3)ccnc2c1 [compound 130]

// result
0.065
0.352
0.654

For each of the molecules below, note its IC50.
1. COc1cnc2c(Oc3ccc(Nc4nnc(-c5ccc6c(c5)CC(C)(C)O6)c5ccccc45)cc3)ccnc2c1 [compound 136]
2. COc1cnc2c(Oc3ccc(Nc4nncc5ccccc45)cc3)ccnc2c1 [compound 542]
3. COc1cnc2c(Oc3ccc(Nc4nnc(-c5ccc(C)cn5)c5ccccc45)cc3)ccnc2c1 [compound 125]
4. CCN(CC)C(=O)c1cc2nccc(Oc3ccc(Nc4nnc(-c5ccc(Cl)cc5)c5ccccc45)cc3)c2s1 [compound 270]
5. CCc1cc(N2CC[C@H]3CCCC[C@@H]3C2)nnc1Nc1ccc(Oc2ccnc3cc(OC)cnc23)cc1 [compound 300]
6. COc1cnc2c(Oc3ccc(Nc4nnc(-c5ccc(C)cc5)c5ccccc45)cc3)ccnc2c1 [compound 81]
7. COc1cnc2c(Oc3ccc(Nc4nnc(-c5ccc(OC(C)C)cc5)c5ccccc45)cc3)ccnc2c1 [compound 137]

// result
1: 0.037; 2: 0.319; 3: 0.018; 4: 0.084; 5: 0.112; 6: 0.012; 7: 0.091

I'm hoping you can list IC50 for every molecule here, please.
1. Clc1ccc(-c2nnc(Nc3ccc(Sc4ccnc5ccsc45)cc3)c3ccccc23)cc1 [compound 332]
2. COc1cnc2c(Oc3ccc(Nc4nnc(C5CC5)c5ccccc45)cc3)ccnc2c1 [compound 543]
3. CCCc1cc(-c2ccccc2)nnc1Nc1ccc(Oc2ccnc3cc(C#N)ccc23)cc1 [compound 196]
4. COc1cnc2c(Oc3ccc(Nc4nnc(-c5ccc(C(F)(F)F)c(Cl)c5)c5ccccc45)cc3)ccnc2c1 [compound 172]
5. COc1cc2nccc(Oc3ccc(Nc4nnc(-n5nc(C)cc5C)c5ccccc45)cc3F)c2cc1OC [compound 77]

// result
[0.016, 0.581, 0.672, 0.039, 0.701]

// for each molecule below, give its IC50
1. COc1cnc2c(Oc3ccc(Nc4nnc(-c5cccc(C(=O)N(C)C)c5)c5ccccc45)cc3)ccnc2c1 [compound 226]
2. COc1cnc2c(Oc3ccc(Nc4nnc(-c5ccccc5)c(C)c4C)cc3)ccnc2c1 [compound 281]
3. Cc1ccc(-c2nnc(Nc3ccc(Sc4ccnc5ccoc45)cc3)c3ccccc23)cc1F [Example 398]
4. Fc1cc(F)c2c(Sc3ccc(Nc4nnc(-c5ccc(Cl)cc5)c5ccccc45)cc3)ccnc2c1 [compound 342]
5. Cc1ccc(-c2nnc(Nc3ccc(Oc4ccnc5cc(-c6cncn6C)sc45)cc3)c3ccccc23)cc1 [compound 203]
6. c1ccc2c(-c3ccc4c(c3)OCO4)nnc(Nc3ccc(Sc4ccnc5ccoc45)cc3)c2c1 [compound 467]
7. COc1ccc2nccc(Sc3ccc(Nc4nnc(-c5ccc(Cl)cc5)c5ccccc45)cc3)c2c1 [compound 315]

// result
1. 0.187
2. 0.696
3. 1.73
4. 0.189
5. 0.008
6. 0.095
7. 0.036
